Entries below carry reported IC50 on Imidazoleglycerol-phosphate dehydratase (Cryptococcus neoformans var. neoformans B-3501A).
TEST READOUT: IC50 (µM)

>>> df
                                   compound  test_readout  measured_result
0  CCCCCC(=O)NC(Cn1cncn1)CP(=O)(O)O (stereo not given)          IC50             0.84

[a] O=C(Cc1cccs1)NC(Cn1cncn1)CP(=O)(O)O (stereo not given)
[b] O=C(CSc1ccccc1)NC(Cn1cncn1)CP(=O)(O)O (stereo not given)
// compare: a vs b , metric IC50, want the smaller Choose, then provide that item's label.
b

[a] CCCCc1ccc(C(=O)NC(Cn2cncn2)CP(=O)(O)O)cc1 (stereo not given)
[b] COC(=O)CCCC(=O)NC(Cn1cncn1)CP(=O)(O)O (stereo not given)
Given the listed records, identify the one among a and b with higher IC50. Choose, then provide that item's label.
a

[1] CC(C)=CC(=O)NC(Cn1cncn1)CP(=O)(O)O (stereo not given)
[2] O=C(CCc1ccccc1)NC(Cn1cncn1)CP(=O)(O)O (stereo not given)
Given the listed records, identify the one among 1 and 2 with higher IC50. Choose, then provide that item's label.
1
(1: 4.5 µM, 2: 0.96 µM)

[P] O=C(CCC(=O)c1ccccc1)NC(Cn1cncn1)CP(=O)(O)O (stereo not given)
[Q] CC(C)(C)CC(=O)NC(Cn1cncn1)CP(=O)(O)O (stereo not given)
[R] O=C(COc1ccccc1)NC(Cn1cncn1)CP(=O)(O)O (stereo not given)
# ascending order, key=IC50 Field: ranking. Enter the labels in the order requested.
R, Q, P
(R: 0.38 µM, Q: 4.8 µM, P: 20 µM)

###

Target: Imidazoleglycerol-phosphate dehydratase (Cryptococcus neoformans var. neoformans B-3501A, UniProt P0CO23)
Sequence (P0CO23 whole entry, looked up): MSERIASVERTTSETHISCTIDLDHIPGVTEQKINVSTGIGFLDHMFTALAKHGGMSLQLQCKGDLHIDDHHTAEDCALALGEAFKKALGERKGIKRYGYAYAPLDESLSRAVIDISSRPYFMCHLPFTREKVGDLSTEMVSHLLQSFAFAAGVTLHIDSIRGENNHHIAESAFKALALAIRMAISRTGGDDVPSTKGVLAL
TEST READOUT: Ki (nM)

>>> df
                                   molecule  test_readout  units_label  measured_result
0  CCC(=O)NC(Cn1cncn1)CP(=O)(O)O (stereo unspecified)            Ki           nM             1200

[A] C/C=C/C(=O)NC(Cn1cncn1)CP(=O)(O)O (stereo unspecified)
[B] O=C(Cc1ccccc1)NC(Cn1cncn1)CP(=O)(O)O (stereo unspecified)
[C] CC(=O)NC(Cn1cncn1)CP(=O)(O)O (stereo unspecified)
[D] O=C(NC(Cn1cncn1)CP(=O)(O)O)C1CC1 (stereo unspecified)
# ascending order, key=Ki Field: ranking. Enter the labels in the order requested.
B, C, A, D
(B: 340 nM, C: 800 nM, A: 1450 nM, D: 4000 nM)

[P] O=C(NC(Cn1cncn1)CP(=O)(O)O)c1c(F)cccc1F (stereo unspecified)
[Q] CCCCCC(=O)NC(Cn1cncn1)CP(=O)(O)O (stereo unspecified)
Given the listed records, identify the one among P and Q with higher Ki. Choose, then provide that item's label.
P

[a] O=C(CSc1ccccc1)NC(Cn1cncn1)CP(=O)(O)O (stereo unspecified)
[b] O=C(Cc1cccs1)NC(Cn1cncn1)CP(=O)(O)O (stereo unspecified)
// compare: a vs b , metric Ki, want the smaller Choose, then provide that item's label.
a
(a: 250 nM, b: 560 nM)

[P] COCC(=O)NC(Cn1cncn1)CP(=O)(O)O (stereo unspecified)
[Q] COC(=O)CCCC(=O)NC(Cn1cncn1)CP(=O)(O)O (stereo unspecified)
Given the listed records, identify the one among P and Q with higher Ki. Choose, then provide that item's label.
P
(P: 2200 nM, Q: 700 nM)

[A] O=C(NC(Cn1cncn1)CP(=O)(O)O)c1ccccc1O (stereo unspecified)
[B] O=C(CO)NC(Cn1cncn1)CP(=O)(O)O (stereo unspecified)
// compare: A vs B , metric Ki, want the smaller Choose, then provide that item's label.
B

[I] O=C(/C=C/c1ccccc1)NC(Cn1cncn1)CP(=O)(O)O (stereo unspecified)
[II] O=C(NC(Cn1cncn1)CP(=O)(O)O)c1ccccc1 (stereo unspecified)
[III] O=C(CCc1ccccc1)NC(Cn1cncn1)CP(=O)(O)O (stereo unspecified)
[IV] CC(C)(C)CC(=O)NC(Cn1cncn1)CP(=O)(O)O (stereo unspecified)
[V] O=C(COc1ccccc1)NC(Cn1cncn1)CP(=O)(O)O (stereo unspecified)
Ranking field: Ki; order: falling. Field: ranking. Enter the labels in the order requested.
II, I, IV, III, V

[I] O=C(NC(Cn1cncn1)CP(=O)(O)O)c1ccco1 (stereo unspecified)
[II] O=C(CCC1CCCC1)NC(Cn1cncn1)CP(=O)(O)O (stereo unspecified)
[III] CCCCc1ccc(C(=O)NC(Cn2cncn2)CP(=O)(O)O)cc1 (stereo unspecified)
[IV] O=C(COc1ccc(Cl)cc1)NC(Cn1cncn1)CP(=O)(O)O (stereo unspecified)
[V] CC(Oc1ccccc1)C(=O)NC(Cn1cncn1)CP(=O)(O)O (stereo unspecified)
# ascending order, key=Ki Field: ranking. Enter the labels in the order requested.
V, IV, II, III, I
